- experimentalTarget: ENPP1 (Homo sapiens, UniProt P22413)
- runDescription: Substrate selectivity ratio, inhibition of cGAMP hydrolysis versus ATP hydrolysis
- Type: biochemical
- measurementConditions: ratio Ki AMP-pNP / Ki cGAMP
- Experimental: The selectivity ratios for inhibition of cGAMP hydrolysis versus ATP hydrolysis were then calculated as follows: […]
valueType: Substrate Selectivity: Ki_AMP-pNP/Ki_cGAMP

[
  {
    "molecule": "COc1cc2ncnc(N3CCC(CCC(=O)O)CC3)c2cc1OC",
    "inequalityOperator": ">",
    "numericValue": 50.7
  },
  {
    "molecule": "COc1ccc2c(-c3ccc(CN)cc3)c(C#N)cnc2c1",
    "inequalityOperator": ">",
    "numericValue": 90.4
  },
  {
    "molecule": "COc1ccc2c(-c3ccc(CNS(N)(=O)=O)cc3)ncnc2c1",
    "inequalityOperator": "=",
    "numericValue": 29.5
  },
  {
    "molecule": "COc1ccc2c(-c3ccc(CNS(N)(=O)=O)c(F)c3)ccnc2c1",
    "inequalityOperator": "=",
    "numericValue": 16.1
  },
  {
    "molecule": "COc1cc2ncnc(NC(C)c3ccc(NS(N)(=O)=O)cc3)c2cc1OC (stereo not shown) [Example 140]",
    "inequalityOperator": "=",
    "numericValue": 25.1
  },
  {
    "molecule": "COc1cc2ncnc(Oc3ccc(NS(N)(=O)=O)cc3)c2cc1OC",
    "inequalityOperator": ">",
    "numericValue": 12.4
  },
  {
    "molecule": "COc1cc2ncn(-c3ccc(CNS(N)(=O)=O)cc3)c2cc1OC",
    "inequalityOperator": "=",
    "numericValue": 54.5
  },
  {
    "molecule": "COc1cc2ncnc(NCc3ccc(S(N)(=O)=O)cc3)c2cc1F",
    "inequalityOperator": "=",
    "numericValue": 41.6
  },
  {
    "molecule": "NS(=O)(=O)N1CCc2ccc(-c3ncnc4ccccc34)cc2C1",
    "inequalityOperator": ">",
    "numericValue": 158
  },
  {
    "molecule": "COc1ccc2c(NCc3ccc(NS(N)(=O)=O)cc3)ccnc2c1",
    "inequalityOperator": "=",
    "numericValue": 22.5
  },
  {
    "molecule": "COc1cc2ncc(C#N)c(N3CCC4(CC3)CCN(S(N)(=O)=O)C4)c2cc1F",
    "inequalityOperator": "=",
    "numericValue": 24.7
  },
  {
    "molecule": "COc1ccc2c(-c3ccc(CNS(N)(=O)=O)c(C)c3)ccnc2c1",
    "inequalityOperator": ">",
    "numericValue": 138
  },
  {
    "molecule": "COc1cc2ncnc(Nc3ccc(NS(N)(=O)=O)cc3)c2cc1OC",
    "inequalityOperator": ">",
    "numericValue": 42.7
  },
  {
    "molecule": "COc1ccc2ncnc(N3CCC(CCNS(N)(=O)=O)CC3)c2c1",
    "inequalityOperator": "=",
    "numericValue": 33.6
  },
  {
    "molecule": "COc1ccc2c(Oc3ccc(NS(N)(=O)=O)cc3)ccnc2n1",
    "inequalityOperator": "=",
    "numericValue": 24.2
  },
  {
    "molecule": "COc1ccc2nccc(Oc3ccc(S(N)(=O)=O)cc3)c2c1",
    "inequalityOperator": ">",
    "numericValue": 53
  },
  {
    "molecule": "COc1ccc2c(-n3cc(Cl)c4cc(NS(N)(=O)=O)ccc43)ccnc2c1",
    "inequalityOperator": ">",
    "numericValue": 153
  },
  {
    "molecule": "Cn1c(=O)[nH]c2ncnc(N3CCC(CCNS(N)(=O)=O)CC3)c21",
    "inequalityOperator": ">",
    "numericValue": 929
  },
  {
    "molecule": "COc1cc2nccc(Nc3ccc(CC(=O)NO)cc3)c2cc1OC",
    "inequalityOperator": "=",
    "numericValue": 36.8
  }
]

====

- experimentalTarget: ENPP1 (Homo sapiens, UniProt P22413)
- runDescription: Substrate selectivity ratio, inhibition of cGAMP hydrolysis versus ATP hydrolysis
- Type: biochemical
- measurementConditions: ratio Ki AMP-pNP / Ki cGAMP
Quick reference for Substrate Selectivity: Ki_AMP-pNP/Ki_cGAMP among some molecules
valueType: Substrate Selectivity: Ki_AMP-pNP/Ki_cGAMP

[
  {
    "moleculeSmiles": "COc1cc2ncc(C)c(-c3ccc4c(c3)CN(S(N)(=O)=O)CC4)c2cc1OC",
    "inequalityOperator": "=",
    "numericValue": 16.7
  },
  {
    "moleculeSmiles": "COc1ccc2c(-c3ccc(CNS(N)(=O)=O)cc3)c(C#N)cnc2c1",
    "inequalityOperator": "=",
    "numericValue": 53.0
  },
  {
    "moleculeSmiles": "COc1ccc2c(Oc3ccc(S(N)(=O)=O)cc3)ncnc2c1",
    "inequalityOperator": "=",
    "numericValue": 40
  },
  {
    "moleculeSmiles": "NS(=O)(=O)N1CCC2(CCN(c3ncnc4cc(F)ccc34)CC2)C1",
    "inequalityOperator": ">",
    "numericValue": 89.3
  },
  {
    "moleculeSmiles": "COc1cc2nccc(-c3ccc(CNS(N)(=O)=O)c(F)c3)c2cc1OC",
    "inequalityOperator": "=",
    "numericValue": 8.9
  },
  {
    "moleculeSmiles": "COc1ccc2c(Oc3ccc4c(c3)CCCN4S(N)(=O)=O)ccnc2c1",
    "inequalityOperator": ">",
    "numericValue": 35.9
  },
  {
    "moleculeSmiles": "COc1ccc2ncnc(-c3ccc(CNS(N)(=O)=O)cc3)c2c1",
    "inequalityOperator": ">",
    "numericValue": 28.0
  },
  {
    "moleculeSmiles": "NS(=O)(=O)N1CCC2(CCN(c3ccnc4cc(OC(F)F)ccc34)CC2)C1",
    "inequalityOperator": ">",
    "numericValue": 13.0
  },
  {
    "moleculeSmiles": "COc1cc2nccc(Oc3ccc(N(O)C=O)cc3)c2cc1OC",
    "inequalityOperator": ">",
    "numericValue": 31.1
  },
  {
    "moleculeSmiles": "COc1cc2ncc(C#N)c(-c3ccc(CNS(N)(=O)=O)cc3)c2cc1F",
    "inequalityOperator": ">",
    "numericValue": 31
  },
  {
    "moleculeSmiles": "COc1cc2ncnc(-c3ccc(CCNS(N)(=O)=O)cc3)c2cc1OC",
    "inequalityOperator": "=",
    "numericValue": 20.7
  },
  {
    "moleculeSmiles": "COc1ccc2ncc(C#N)c(N3CCC4(CC3)CCN(S(N)(=O)=O)C4)c2c1",
    "inequalityOperator": ">",
    "numericValue": 99.7
  },
  {
    "moleculeSmiles": "COc1ccc2c(-c3ccc4c(c3)CN(S(N)(=O)=O)C4)ccnc2c1",
    "inequalityOperator": "=",
    "numericValue": 46
  },
  {
    "moleculeSmiles": "COc1ccc2c(NCc3ccc(S(N)(=O)=O)cc3)ncnc2c1",
    "inequalityOperator": "=",
    "numericValue": 71.2
  },
  {
    "moleculeSmiles": "COc1cc2c(N3CCC4(CC3)CCN(S(N)(=O)=O)C4)c(C#N)cnc2cn1",
    "inequalityOperator": ">",
    "numericValue": 118
  },
  {
    "moleculeSmiles": "COc1ccc2c(Oc3ncc(NS(N)(=O)=O)cc3C)ccnc2c1",
    "inequalityOperator": "=",
    "numericValue": 55
  },
  {
    "moleculeSmiles": "COc1cc2nc(-c3cccnc3)nc(N3CCC(CCNS(N)(=O)=O)CC3)c2cc1OC",
    "inequalityOperator": ">",
    "numericValue": 24
  },
  {
    "moleculeSmiles": "COc1ccc2c(Oc3ccc4c(c3)CCN4S(N)(=O)=O)ccnc2c1",
    "inequalityOperator": ">",
    "numericValue": 103
  }
]

====

- experimentalTarget: ENPP1 (Homo sapiens, UniProt P22413)
- Sequence (P22413 1-925): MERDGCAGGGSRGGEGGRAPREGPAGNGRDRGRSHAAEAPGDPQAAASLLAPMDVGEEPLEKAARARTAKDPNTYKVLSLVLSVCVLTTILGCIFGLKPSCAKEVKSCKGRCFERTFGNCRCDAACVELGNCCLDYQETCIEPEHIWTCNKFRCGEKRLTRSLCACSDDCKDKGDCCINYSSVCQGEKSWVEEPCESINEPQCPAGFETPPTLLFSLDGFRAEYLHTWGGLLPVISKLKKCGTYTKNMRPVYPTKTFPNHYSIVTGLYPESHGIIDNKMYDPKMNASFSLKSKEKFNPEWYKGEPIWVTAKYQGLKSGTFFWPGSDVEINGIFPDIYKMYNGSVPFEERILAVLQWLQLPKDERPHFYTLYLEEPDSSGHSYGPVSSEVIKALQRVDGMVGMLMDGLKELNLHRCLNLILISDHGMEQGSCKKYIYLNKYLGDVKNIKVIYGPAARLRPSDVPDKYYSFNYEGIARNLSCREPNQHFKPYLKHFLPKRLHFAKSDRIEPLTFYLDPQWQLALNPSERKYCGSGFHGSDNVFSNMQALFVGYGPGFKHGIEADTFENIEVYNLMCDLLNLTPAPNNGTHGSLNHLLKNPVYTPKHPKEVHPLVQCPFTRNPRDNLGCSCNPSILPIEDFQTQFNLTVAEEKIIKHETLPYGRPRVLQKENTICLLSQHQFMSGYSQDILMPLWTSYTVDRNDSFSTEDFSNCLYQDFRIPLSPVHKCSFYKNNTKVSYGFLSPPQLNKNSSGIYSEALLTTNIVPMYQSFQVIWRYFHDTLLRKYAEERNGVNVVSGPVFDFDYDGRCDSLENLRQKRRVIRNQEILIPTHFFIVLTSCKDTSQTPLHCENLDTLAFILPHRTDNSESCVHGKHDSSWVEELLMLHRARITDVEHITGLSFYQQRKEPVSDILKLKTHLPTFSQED
- runDescription: Indirect quantitation of 2',3'-cGAMP hydrolysis (AMP-Glo Assay kit)
- Format: biochemical
- measurementConditions: cGAMP substrate; Ki from IC50 by Cheng-Prusoff; read-out: ENPP1 Inhibition -cGAMP: Ki
pKi: −log10 of the molar value.
valueType: pKi

[
  {
    "moleculeSmiles": "COc1cc2ncc(-c3ccc(NS(N)(=O)=O)cc3)nc2cc1OC",
    "experimentalTarget": "ENPP1 (Homo sapiens, UniProt P22413)",
    "result": "< 6.00"
  },
  {
    "moleculeSmiles": "COc1ccc2c(Oc3ccc4c(c3)CCC(=O)N4)ccnc2c1",
    "experimentalTarget": "ENPP1 (Homo sapiens, UniProt P22413)",
    "result": "< 6.00"
  },
  {
    "moleculeSmiles": "COc1ccc(-c2cc(N3CCC(NS(N)(=O)=O)CC3)ncn2)cc1OC",
    "experimentalTarget": "ENPP1 (Homo sapiens, UniProt P22413)",
    "result": "< 6.00"
  },
  {
    "moleculeSmiles": "COc1ccc2c(NCc3ccc(NS(N)(=O)=O)cc3)ccnc2n1",
    "experimentalTarget": "ENPP1 (Homo sapiens, UniProt P22413)",
    "result": "> 7.00"
  },
  {
    "moleculeSmiles": "COc1cc2ncnc(Nc3ccc(CNS(N)(=O)=O)cc3)c2cc1OC",
    "experimentalTarget": "ENPP1 (Homo sapiens, UniProt P22413)",
    "result": "< 6.00"
  },
  {
    "moleculeSmiles": "COc1cc2ncnc(-c3ccc(CNS(N)(=O)=O)cc3)c2cc1OC",
    "experimentalTarget": "ENPP1 (Homo sapiens, UniProt P22413)",
    "result": "> 7.00"
  },
  {
    "moleculeSmiles": "COc1ccc2c(-c3ccc(CNS(N)(=O)=O)c(OC)c3)ccnc2c1",
    "experimentalTarget": "ENPP1 (Homo sapiens, UniProt P22413)",
    "result": "6.00 to 7.00"
  },
  {
    "moleculeSmiles": "COc1cc2ncnc(N3CCC(CCNS(N)(=O)=O)CC3)c2cc1Cl",
    "experimentalTarget": "ENPP1 (Homo sapiens, UniProt P22413)",
    "result": "> 7.00"
  },
  {
    "moleculeSmiles": "COc1cc2ncnc(Nc3ccc(NS(N)(=O)=O)cc3)c2cc1OC",
    "experimentalTarget": "ENPP1 (Homo sapiens, UniProt P22413)",
    "result": "> 7.00"
  },
  {
    "moleculeSmiles": "COc1cc2c(=O)ccn(Cc3ccc(NS(N)(=O)=O)cc3)c2cc1OC",
    "experimentalTarget": "ENPP1 (Homo sapiens, UniProt P22413)",
    "result": "> 7.00"
  },
  {
    "moleculeSmiles": "COc1cc2ncnc(-c3ccc4c(c3)CN(S(N)(=O)=O)CC4)c2cc1OC",
    "experimentalTarget": "ENPP1 (Homo sapiens, UniProt P22413)",
    "result": "> 7.00"
  },
  {
    "moleculeSmiles": "COc1ccc2c(-c3ccc(CNS(N)(=O)=O)cc3)coc2c1",
    "experimentalTarget": "ENPP1 (Homo sapiens, UniProt P22413)",
    "result": "6.00 to 7.00"
  },
  {
    "moleculeSmiles": "COc1cc2ccn(-c3ccc(CNS(N)(=O)=O)cc3)c2cc1OC",
    "experimentalTarget": "ENPP1 (Homo sapiens, UniProt P22413)",
    "result": "< 6.00"
  },
  {
    "moleculeSmiles": "COc1ccc2c(Oc3ccc(NS(=O)(=O)NN)cc3)ccnc2c1",
    "experimentalTarget": "ENPP1 (Homo sapiens, UniProt P22413)",
    "result": "6.00 to 7.00"
  },
  {
    "moleculeSmiles": "COc1ccc2c(-c3ccc4c(c3)CCN(S(N)(=O)=O)C4)ccnc2c1",
    "experimentalTarget": "ENPP1 (Homo sapiens, UniProt P22413)",
    "result": "< 6.00"
  },
  {
    "moleculeSmiles": "COc1cc2nccc(Nc3ccc(NS(N)(=O)=O)cc3)c2cc1OC",
    "experimentalTarget": "ENPP1 (Homo sapiens, UniProt P22413)",
    "result": "> 7.00"
  },
  {
    "moleculeSmiles": "COc1ccc2c(N3CCc4cc(NS(N)(=O)=O)cc(F)c43)ccnc2c1",
    "experimentalTarget": "ENPP1 (Homo sapiens, UniProt P22413)",
    "result": "> 7.00"
  },
  {
    "moleculeSmiles": "COc1cc2ncc(C)c(-c3ccc4c(c3)CN(S(N)(=O)=O)CC4)c2cc1OC",
    "experimentalTarget": "ENPP1 (Homo sapiens, UniProt P22413)",
    "result": "> 7.00"
  },
  {
    "moleculeSmiles": "COc1cc2nccc(N3CCc4cc(NS(N)(=O)=O)ccc43)c2cc1F",
    "experimentalTarget": "ENPP1 (Homo sapiens, UniProt P22413)",
    "result": "> 7.00"
  }
]
